- Test system: HepG2
- SETTINGS: IC50 on LLC-PK1 divided by IC50 on HepG2
QUANTITY: SI HepG2
API note: the answer field is a bare number with no unit suffix.

Query SI HepG2 on HepG2 for COc1cc(/C=C/C(=O)/C=C/c2c(C)nn(-c3ccccc3)c2Cl)ccc1O [Compound 7c]
1.19

Query SI HepG2 on HepG2 for COc1cc(/C=C/C(=O)/C=C/c2c(C)nn(-c3ccccc3)c2Cl)cc(OC)c1O [Compound 7h]
2.14

Query SI HepG2 on HepG2 for COc1cc(/C=C/C(=O)/C=C/c2cn(-c3ccccc3)nc2-c2ccccc2)ccc1O [Compound 10c]
1.49

Taken from paper PMC9520563.
